# experimental-system: tetanus neurotoxin (TeNT), authentic tetanus holotoxin (Clostridium tetani, UniProt P04958 2-1315)
# Sequence (P04958 2-457 limits assumed, chain 1 of 2): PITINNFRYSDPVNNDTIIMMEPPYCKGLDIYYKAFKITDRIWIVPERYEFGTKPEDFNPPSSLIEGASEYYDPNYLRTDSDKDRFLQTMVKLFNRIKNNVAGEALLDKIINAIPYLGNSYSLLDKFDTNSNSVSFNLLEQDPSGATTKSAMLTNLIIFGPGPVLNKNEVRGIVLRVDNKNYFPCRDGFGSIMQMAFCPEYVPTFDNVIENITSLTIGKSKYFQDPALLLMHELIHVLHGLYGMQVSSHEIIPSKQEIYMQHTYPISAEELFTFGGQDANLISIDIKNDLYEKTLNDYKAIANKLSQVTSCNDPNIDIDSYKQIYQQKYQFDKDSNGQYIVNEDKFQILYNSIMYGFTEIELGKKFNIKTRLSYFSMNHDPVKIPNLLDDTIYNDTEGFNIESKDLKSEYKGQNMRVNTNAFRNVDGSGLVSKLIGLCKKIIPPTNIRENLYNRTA
# Sequence (P04958 458-1315 limits assumed, chain 2 of 2): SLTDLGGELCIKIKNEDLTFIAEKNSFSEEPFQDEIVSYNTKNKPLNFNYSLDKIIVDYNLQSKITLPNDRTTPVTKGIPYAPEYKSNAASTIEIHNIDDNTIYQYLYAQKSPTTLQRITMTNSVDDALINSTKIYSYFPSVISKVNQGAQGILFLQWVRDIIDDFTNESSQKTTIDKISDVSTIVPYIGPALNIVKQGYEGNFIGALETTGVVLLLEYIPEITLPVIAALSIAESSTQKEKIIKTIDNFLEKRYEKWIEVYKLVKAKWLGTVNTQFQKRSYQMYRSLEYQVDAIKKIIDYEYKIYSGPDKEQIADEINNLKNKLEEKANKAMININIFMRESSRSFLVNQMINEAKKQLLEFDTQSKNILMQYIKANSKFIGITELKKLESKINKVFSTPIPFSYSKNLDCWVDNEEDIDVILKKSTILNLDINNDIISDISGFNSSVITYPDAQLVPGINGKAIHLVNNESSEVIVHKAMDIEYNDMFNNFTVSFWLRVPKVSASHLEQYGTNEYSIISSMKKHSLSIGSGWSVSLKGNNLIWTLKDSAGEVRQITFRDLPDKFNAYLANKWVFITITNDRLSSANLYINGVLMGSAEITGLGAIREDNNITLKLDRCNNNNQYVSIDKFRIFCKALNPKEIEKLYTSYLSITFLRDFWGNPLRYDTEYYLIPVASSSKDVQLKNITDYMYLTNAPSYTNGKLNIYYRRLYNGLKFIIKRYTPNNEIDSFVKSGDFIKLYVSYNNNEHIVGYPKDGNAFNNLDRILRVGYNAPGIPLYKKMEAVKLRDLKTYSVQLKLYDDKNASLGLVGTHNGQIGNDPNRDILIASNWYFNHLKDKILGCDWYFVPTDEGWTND
# assay-text: GT1b-TeNT inhibition ELISA, EC at A450 0.59
endpoint-label: concentration giving A450 of 0.59

Example binders with recorded concentration giving A450 of 0.59:
SVT02L (VHH) VHH: QVQLQQSGGGSVQAGGSLRLSCVGPQRTFSTYGMGWFRQAPGKEREFVAGINYKGDTTYYADSVKGRFTISRDNAKNTLYLQMDSLKPEDRAVYQCARKGGLGGDYRDAGQYRYWGQGTQVTVSS	> 1 µg/mL
SVT03L (VHH) VHH: QVQLQQSGGGSVQTGDSLTLSCTASGGSLNSYFVGWFRQSGGKEREFVSVIARTGRSTSYADSVKGRFTISRDNAANTVFLTMNNLRPDDTAIYYCAAVGRPGVLHLTQSYDYWGQGTQVTVSS	> 1 µg/mL
SVT29L (VHH) VHH: QVQLQESGGGLVQTGGSLTLSCRAYGRAFDNYHFGWFRQAPGKDREFVASISWKGGSTYRANFALGRFTSSVNRGESSVYLHMSGLTPEDTATYYCAAHDGGDWNYHTGMDYWGKGILVTVSS	0.114 µg/mL

For SVT08L (VHH) VHH: QVQLQESGGGSVQAGGSLRLSCTASEFSYNDYTIAWFRRAAGKGRVEDGEGVASITTSYDRAYDNRIHYGDSVKGRFTISRDNAKNTVYLQMTNLNPSDTAVYYCGLDITPPGGIGASLTEGFLFDYWGQGTQVTVSS the binder record lists concentration giving A450 of 0.59 as 0.411 µg/mL

For SVT34L (VHH) VHH: QVQLQESGGGLVQPGGSLRLSCAASGRTISSYAMGWFRQAPGKQREFVAAISRSGGNTYYTDSVKGRFIISRDNAKNTLYLQMNNLKPEETAVYYCAADPNLMYESKWKYRALEAWGQGTLVTVSS the binder record lists concentration giving A450 of 0.59 as 0.046 µg/mL

For SVT20L (VHH) VHH: QVQLQQSGGGLVQAGGSLRLSCAASGRTMSSYAMGWFRQAPGKQREFVAAISRSGGNTYYTDSVKGRFTISRDNAKNTLYLQMNSLKPEETAVYYCAADPNLMYESKWKYRALEAWGQGTLVTVSS the binder record lists concentration giving A450 of 0.59 as 0.039 µg/mL

For SVT13L (VHH) VHH: QVQLQESGGGLVQAGGSLRLSCAVSGTNFDDYAIGWFRQAPGKRREAVACISKTDGVTRYGNGVKGRFTISSDEARNTVFLQMNDLKDEDTAIYYCIGDFKSCGMGYKPIDHWGRGIQVTVSS the binder record lists concentration giving A450 of 0.59 as 0.082 µg/mL

For SVT22L (VHH) VHH: QVQLQESGGGLVQAGESLRLSCTASGISFDDYAIGWFRQAPGQQRKGVACISKADGRTDYLGSVKGRFTLSTDNTKNTVHLQMNNLKPEDTALYTCAAEYKSCGMGYKPIDYWGQGMQVTVSS the binder record lists concentration giving A450 of 0.59 as 0.105 µg/mL

For SVT05L (VHH) VHH: QVQLQESGGGLVQPGGSLRLSCSASGFSFTDDYGIGWFRSGPGKGREAVAPIADREAVAAIALSDGNTYYSASAKGRFTISRDNAKSTAYLQMNNLKPEDTATYYCAADFWGYGMSWPMATLWEYWGQGIQVTVSS the binder record lists concentration giving A450 of 0.59 as > 1 µg/mL
